Where do the numbers come from? From paper PMC8523698.

Assay System: CYP1A2 (Homo sapiens, UniProt P05177)
Sequence (P05177 whole entry): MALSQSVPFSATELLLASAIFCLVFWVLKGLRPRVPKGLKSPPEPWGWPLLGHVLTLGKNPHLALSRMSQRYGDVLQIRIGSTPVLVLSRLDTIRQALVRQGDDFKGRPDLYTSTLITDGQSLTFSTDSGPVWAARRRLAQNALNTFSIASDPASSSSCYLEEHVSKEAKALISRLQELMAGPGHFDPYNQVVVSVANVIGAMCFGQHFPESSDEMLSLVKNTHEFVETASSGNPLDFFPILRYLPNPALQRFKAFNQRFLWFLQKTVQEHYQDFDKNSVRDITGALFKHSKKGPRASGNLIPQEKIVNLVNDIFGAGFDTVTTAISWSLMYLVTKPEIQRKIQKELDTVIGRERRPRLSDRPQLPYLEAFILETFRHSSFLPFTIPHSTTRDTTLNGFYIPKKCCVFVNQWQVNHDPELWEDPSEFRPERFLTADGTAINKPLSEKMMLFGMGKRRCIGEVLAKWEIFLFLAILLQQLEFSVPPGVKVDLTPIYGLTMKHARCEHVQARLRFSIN
Protocol Description: Reversible CYP inhibition in human liver microsomes
Condition Description: human, microsomes, pH 7.4, Percent of Control Activity, CYP 1A2, 0.398 µM, Zero-Minute Preincubation
Measurement Type: activity at 0.398 µM

Task: Reported activity at 0.398 µM, compound `COc1cccc2[nH]c(C(=O)N[C@@H](CC(C)C)C(=O)N[C@@H](C[C@@H]3CCNC3=O)C(=O)COP(=O)(O)O)cc12` : ____
Result: 98.5%

---

Protocol Description: LogD shake-flask measurement at pH 7.4
Condition Description: 1-octanol/0.1 M sodium phosphate buffer
Measurement Type: logD at 1 h
Give bare numbers.

Task: Need logD at 1 h, item `COc1cccc2[nH]c(C(=O)N[C@@H](CC(C)C)C(=O)N[C@@H](C[C@@H]3CCNC3=O)C(=O)CO)cc12`
Result: 1.7

---

Assay System: CYP2C8 (Homo sapiens)
Sequence (P10632 1-490): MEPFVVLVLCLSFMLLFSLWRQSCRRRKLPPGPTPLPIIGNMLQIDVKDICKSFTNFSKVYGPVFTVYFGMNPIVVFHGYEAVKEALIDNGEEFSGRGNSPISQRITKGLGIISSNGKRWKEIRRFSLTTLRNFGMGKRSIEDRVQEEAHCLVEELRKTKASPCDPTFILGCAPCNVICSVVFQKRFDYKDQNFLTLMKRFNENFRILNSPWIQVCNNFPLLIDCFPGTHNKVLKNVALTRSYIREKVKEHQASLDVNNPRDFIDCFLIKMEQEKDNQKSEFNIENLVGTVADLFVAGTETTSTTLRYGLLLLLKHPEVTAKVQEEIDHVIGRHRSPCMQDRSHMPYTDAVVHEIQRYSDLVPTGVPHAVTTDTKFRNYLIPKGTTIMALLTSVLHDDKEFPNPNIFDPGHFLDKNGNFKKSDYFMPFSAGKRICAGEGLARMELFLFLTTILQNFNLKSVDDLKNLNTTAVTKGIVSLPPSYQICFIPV
Protocol Description: Reversible CYP inhibition in human liver microsomes
Condition Description: human, microsomes, pH 7.4, Percent of Control Activity, CYP 2C8, 0.01 µM, 30-Minute Preincubation
Measurement Type: activity at 0.01 µM (%)
Answers are plain numbers, in %.

Task: Item under review: `COc1cccc2[nH]c(C(=O)N[C@@H](CC(C)C)C(=O)N[C@@H](C[C@@H]3CCNC3=O)C(=O)COP(=O)(O)O)cc12` . Reported activity at 0.01 µM?
Result: 94.3

---

Assay System: OCT2 (Homo sapiens, UniProt O15244)
Sequence (O15244 1-555): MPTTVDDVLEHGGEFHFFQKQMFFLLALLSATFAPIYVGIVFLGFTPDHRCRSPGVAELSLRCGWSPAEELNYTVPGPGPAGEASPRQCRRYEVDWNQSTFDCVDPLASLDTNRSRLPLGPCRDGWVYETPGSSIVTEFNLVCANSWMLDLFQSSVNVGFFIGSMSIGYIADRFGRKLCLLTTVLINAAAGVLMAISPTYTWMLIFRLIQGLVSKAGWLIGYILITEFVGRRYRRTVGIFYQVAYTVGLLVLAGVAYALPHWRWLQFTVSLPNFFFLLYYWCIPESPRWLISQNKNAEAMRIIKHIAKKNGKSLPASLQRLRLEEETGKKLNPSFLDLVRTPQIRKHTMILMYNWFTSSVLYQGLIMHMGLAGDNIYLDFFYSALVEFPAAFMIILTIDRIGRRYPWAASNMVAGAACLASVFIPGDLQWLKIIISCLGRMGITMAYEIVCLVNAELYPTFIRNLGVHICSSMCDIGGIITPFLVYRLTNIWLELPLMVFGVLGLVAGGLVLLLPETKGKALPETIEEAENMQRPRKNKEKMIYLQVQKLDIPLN
Protocol Description: Transporter inhibition using transfected HEK293 cells
Condition Description: IC50, [14C]Metformin (20 µM)
pIC50: −log10 of the molar value.
Measurement Type: pIC50

Task: Any idea what pIC50 was measured for `COc1cccc2[nH]c(C(=O)N[C@@H](CC(C)C)C(=O)N[C@@H](C[C@@H]3CCNC3=O)C(=O)COP(=O)(O)O)cc12` ?
Result: < 3.52
